Tested on: LT015 primary cells
Assay: Cell viability IC50 (CCK-8), primary cells LT015 from small cell lung cancer bronchoscopic biopsy
Type: cell-based
Conditions: LT015, CCK-8
pIC50: −log10 of the molar value.
Outcome: condition met for pIC50 of at least 6; condition not met for anything lower.

CN1CCN(Cc2ccc(Nc3ncc(Cl)c(Nc4ccccc4S(=O)(=O)N(C)C)n3)cc2)CC1 : condition met

### Prompt Please check the record N.N.[Cl][Pt][Cl] [Cisplatin] and state if its pIC50 is at or above 6.
### Response condition not met

### Prompt Exam item: decide whether the reported pIC50 for COc1cc2c(Oc3ccc4[nH]c(C)cc4c3F)ccnc2cc1OCC1(N)CC1 is at least 6.
### Response condition not met

### Prompt Check if pIC50 >= 6 (inclusive). Item: COc1cc([C@@H]2c3cc4c(cc3[C@@H](O[C@@H]3O[C@@H]5CO[C@@H](C)O[C@H]5[C@H](O)[C@H]3O)[C@H]3COC(=O)[C@H]23)OCO4)cc(OC)c1O [Etoposide]
### Response condition not met

### Prompt Hello, I need to know if CN1CC2CCC(C1)N2Cc1ccc(Nc2ncc(Cl)c(Nc3ccccc3S(=O)(=O)N(C)C)n2)cc1 has measured pIC50 not below 6. Thanks!
### Response condition met

----------
Attribute: IC50
Test system: NCI-H1650 cells
Experiment: Cell viability IC50 (MTT), Gefitinib- and Osimertinib-resistant NCI-H1650 cells
Details: Homo sapiens, NCI-H1650, 72 h, read-out: cell viability IC50
Counter-ions that a name gives are not always drawn.
Please respond with the number in nM and leave the unit unwritten.

// worked examples, IC50 included
CN(C)CCN1Cc2ccc(Nc3ncc(Cl)c(Nc4ccccc4S(=O)(=O)N(C)C)n3)cc2C1 : 37.8
COCCN1CCc2cc(Nc3ncc(Cl)c(Nc4ccccc4S(=O)(=O)N(C)C)n3)ccc2C1 [Compound 11, formate] : 32.5
CN1CCN(Cc2ccc(Nc3ncc(Cl)c(Nc4ccncc4S(=O)(=O)N(C)C)n3)cc2)CC1 : 250
C=CC(=O)Nc1cc(Nc2nccc(-c3cn(C)c4ccccc34)n2)c(OC)cc1N(C)CCN(C)C : 2750
CN(C)CCN1CCc2cc(Nc3ncc(Cl)c(Nc4ccccc4S(=O)(=O)N(C)C)n3)ccc2C1 [Compound 13, formate] : 67.3
C[C@@H]1CN(Cc2ccc(Nc3ncc(Cl)c(Nc4ccccc4S(=O)(=O)N(C)C)n3)cc2)C[C@H](C)N1C : 136

Now consider a different compound.
### Prompt Give IC50 for this entry on NCI-H1650 cells: CN(C)C1CCN(Cc2ccc(Nc3ncc(Cl)c(Nc4ccccc4S(=O)(=O)N(C)C)n3)cc2)C1 (stereo not shown)
### Response 163

----------
System: NCI-H1975 cells
Experiment: Cell viability IC50 (MTT), Gefitinib-resistant NCI-H1975 cells
Conditions: Homo sapiens, NCI-H1975, 72 h, read-out: cell viability IC50
Where a name gives a salt, the structure may show the parent alone.
Measurement name: IC50

Some solved cases for reference:
CN1CCN(Cc2ccc(Nc3ncc(Cl)c(Nc4ccncc4S(=O)(=O)N(C)C)n3)cc2)CC1 : 47.7 nM
CN(C)CCN1CCc2cc(Nc3ncc(Cl)c(Nc4ccccc4S(=O)(=O)N(C)C)n3)ccc2C1 [Compound 13, formate] : 19.8 nM
COCCN1CCc2cc(Nc3ncc(Cl)c(Nc4ccccc4S(=O)(=O)N(C)C)n3)ccc2C1 [Compound 11, formate] : 29.1 nM

### Prompt Tell me IC50 of CN(C)CCN1Cc2ccc(Nc3ncc(Cl)c(Nc4ccccc4S(=O)(=O)N(C)C)n3)cc2C1 when tested on NCI-H1975 cells.
### Response 28.3 nM

### Prompt Fetch value of IC50 on NCI-H1975 cells for CN(C)C1CCN(Cc2ccc(Nc3ncc(Cl)c(Nc4ccccc4S(=O)(=O)N(C)C)n3)cc2)C1 (stereo not shown) .
### Response 87.7 nM

### Prompt Return reported IC50 for target or system NCI-H1975 cells, item CN1CC2CCC(C1)N2Cc1ccc(Nc2ncc(Cl)c(Nc3ccccc3S(=O)(=O)N(C)C)n2)cc1 .
### Response 55.2 nM

### Prompt Specify IC50 for CN1C2CCC1CN(Cc1ccc(Nc3ncc(Cl)c(Nc4ccccc4S(=O)(=O)N(C)C)n3)cc1)C2 , system NCI-H1975 cells.
### Response 25.3 nM
